- procedureDetails: Saturation solubility of HupA in oils, surfactants and co-surfactants
- Assay type: physicochemical
- assayContext: Tween 80, 37 °C, thermodynamic from solid
assayMetric: solubility at 24 h (mg/mL)
Form entry: value (mg/mL) — number only.

Sample C/C=C1\[C@H]2C=C(C)C[C@]1(N)c1ccc(=O)[nH]c1C2 [HupA, Huperzine A] — what was its solubility at 24 h?
21

###

- procedureDetails: Saturation solubility of HupA in oils, surfactants and co-surfactants
- Type: physicochemical
- assayContext: Labrasol, 37 °C, thermodynamic from solid
assayMetric: solubility at 24 h (mg/mL)
I only need the number, in mg/mL, no unit after it.

Requested read-out: solubility at 24 h. Entry: `C/C=C1\[C@H]2C=C(C)C[C@]1(N)c1ccc(=O)[nH]c1C2`
102

Attribution: paper PMC6885571
